- target system: IgE of patient serum 4
- assay overview: ELISA inhibition, serum 4 pre-incubated with 1.25 µg/ml inhibitor; competitor: wt Bet v 1 adsorbed on wells
test readout: % inhibition of Bet v 1-IgE binding
Reply with the number and its unit after it.

Consider mixture of the two mutagenised allergens (mut Bet v 1-SEQ ID NO:6 and mut Mal d 1-SEQ ID NO:2) (protein) chain 1: HHHHHHGVFNYETETTSVIPAARLFKAFILDGDNLFPKVAPQAISSVENIEGNGGPGTIAKISFPEGFPFKYVKDRVDEVDHTNFKYNYSVIEGGPIGDTLEKISNEIKIVATPDGGSILAINNKYHTAGDHEVKAEQIKASKEMGETLLRAVESYLLAHSDAYN chain 2: HHHHHHGVYTFENEFTSEIPPSRLFKAFVLAADNLIPKIAPQAIKQAEILEGDGGPGTIKKITFGEGSQYGYVKHKIDSVDEAAYSYAYTLIEGDALTDTIEKVSYETKLVASGSGSIIKSISHYHTKGDVEIKEEHVKAGKEKAHGLFKLIESYLKGHPDAYN . Its measured % inhibition of Bet v 1-IgE binding is 56.5%
